system: MCF7; test: percentage of EdU-negative (G0-arrested) nuclei per well, 72 h; higher = more G0 arrest; conditions: protein concentration 0.225 µM; reference: sequence is the full UniProt precursor, the tested protein was the secreted form or ectodomain;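 note: secreted proteins added to cultured cells, EdU pulse at the end, nuclei found by Hoechst imaging, EdU status from nuclear versus surrounding ring intensity ratio, PBS as neutral control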
percentage of EdU-negative of 30% or higher: class 1. Under 30%: class 0.

Answered examples (4):
- item-sequence: "MGPLPVCLPIMLLLLLPSLLLLLLLPGPGSGEASRILRVHRRGILELAGTVGCVGPRTPIAYMKYGCFCGLGGHGQPRDAIDWCCHGHDCCYTRAEEAGCSPKTERYSWQCVNQSVLCGPAENKCQELLCKCDQEIANCLAQTEYNLKYLFYPQFLCEPDSPKCD"
  assigned-label: "class 1"
- item-sequence: "MFHVSFRYIFGLPPLILVLLPVASSDCDIEGKDGKQYESVLMVSIDQLLDSMKEIGSNCLNNEFNFFKRHICDANKEGMFLFRAARKLRQFLKMNSTGDFDLHLLKVSEGTTILLNCTGQVKGRKPAALGEAQPTKSLEENKSLKEQKKLNDLCFLKRLLQEIKTCWNKILMGTKEH"
  assigned-label: "class 0"
- item-sequence: "MRLLPLLRTVLWAAFLGSPLRGGSSLRHVVYWNSSNPRLLRGDAVVELGLNDYLDIVCPHYEGPGPPEGPETFALYMVDWPGYESCQAEGPRAYKRWVCSLPFGHVQFSEKIQRFTPFSLGFEFLPGETYYYISVPTPESSGQCLRLQVSVCCKERKSESAHPVGSPGESGTSGWRGGDTPSPLCLLLLLLLLILRLLRIL"
  assigned-label: "class 0"
- item-sequence: "MAVFKTTLWRLISGTLGIICLSLMSTLGILLKNSFTKLSIEPAFTPGPNIELQKDSDCCSCQEKWVGYRCNCYFISSEQKTWNESRHLCASQKSSLLQLQNTDELDFMSSSQQFYWIGLSYSEEHTAWLWENGSALSQYLFPSFETFNTKNCIAYNPNGNALDESCEDKNRYICKQQLI"
  assigned-label: "class 0"

Shift focus to the following entry.
Hello, I need to know if MAGSPTCLTLIYILWQLTGSAASGPVKELVGSVGGAVTFPLKSKVKQVDSIVWTFNTTPLVTIQPEGGTIIVTQNRNRERVDFPDGGYSLKLSKLKKNDSGIYYVGIYSSSLQQPSTQEYVLHVYEHLSKPKVTMGLQSNKNGTCVTNLTCCMEHGEEDVIYTWKALGQAANESHNGSILPISWRWGESDMTFICVARNPVSRNFSSPILARKLCEGAADDPDSSMVLLCLLLVPLLLSLFVLGLFLWFLKRERQEEYIEEKKRVDICRETPNICPHSGENTEYDTIPHTNRTILKEDPANTVYSTVEIPKKMENPHSLLTMPDTPRLFAYENVI [Q9NQ25] has measured percentage of EdU-negative not below 30%. Thanks! class 0

###

system: hTERT-HMEC; assay: percentage of EdU-negative (G0-arrested) nuclei per well, 72 h; higher = more G0 arrest; conditions: protein concentration 0.225 µM; reference: sequence is the full UniProt precursor, the tested protein was the secreted form or ectodomain
property: percentage of EdU-negative (%)
Just the number please, in %, no unit attached.

These recorded examples may help you get a feel for the data.
- item-sequence: "MLGQVVTLILLLLLKVYQGKGCQGSADHVVSISGVPLQLQPNSIQTKVDSIAWKKLLPSQNGFHHILKWENGSLPSNTSNDRFSFIVKNLSLLIKAAQQQDSGLYCLEVTSISGKVQTATFQVFVFESLLPDKVEKPRLQGQGKILDRGRCQVALSCLVSRDGNVSYAWYRGSKLIQTAGNLTYLDEEVDINGTHTYTCNVSNPVSWESHTLNLTQDCQNAHQEFRFWPFLVIIVILSALFLGTLACFCVWRRKRKEKQSETSPKEFLTIYEDVKDLKTRRNHEQEQTFPGGGSTIYSMIQSQSSAPTSQEPAYTLYSLIQPSRKSGSRKRNHSPSFNSTIYEVIGKSQPKAQNPARLSRKELENFDVYS [Q9BZW8]"
  property: "percentage of EdU-negative"
  unit-text: "%"
  readout-value: 6.56
- item-sequence: "MQWLRVRESPGEATGHRVTMGTAALGPVWAALLLFLLMCEIPMVELTFDRAVASGCQRCCDSEDPLDPAHVSSASSSGRPHALPEIRPYINITILKGDKGDPGPMGLPGYMGREGPQGEPGPQGSKGDKGEMGSPGAPCQKRFFAFSVGRKTALHSGEDFQTLLFERVFVNLDGCFDMATGQFAAPLRGIYFFSLNVHSWNYKETYVHIMHNQKEAVILYAQPSERSIMQSQSVMLDLAYGDRVWVRLFKRQRENAIYSNDFDTYITFSGHLIKAEDD [Q9BXI9]"
  property: "percentage of EdU-negative"
  unit-text: "%"
  readout-value: 4.82
- item-sequence: "MKLAFLFLGPMALLLLAGYGCVLGASSGNLRTFVGCAVREFTFLAKKPGCRGLRITTDACWGRCETWEKPILEPPYIEAHHRVCTYNETKQVTVKLPNCAPGVDPFYTYPVAIRCDCGACSTATTECETI [Q86YW7]"
  property: "percentage of EdU-negative"
  unit-text: "%"
  readout-value: 5.1
- item-sequence: "MAAAAMAAAAGGGAGAARSLSRFRGCLAGALLGDCVGSFYEAHDTVDLTSVLRHVQSLEPDPGTPGSERTEALYYTDDTAMARALVQSLLAKEAFDEVDMAHRFAQEYKKDPDRGYGAGVVTVFKKLLNPKCRDVFEPARAQFNGKGSYGNGGAMRVAGISLAYSSVQDVQKFARLSAQLTHASSLGYNGAILQALAVHLALQGESSSEHFLKQLLGHMEDLEGDAQSVLDARELGMEERPYSSRLKKIGELLDQASVTREEVVSELGNGIAAFESVPTAIYCFLRCMEPDPEIPSAFNSLQRTLIYSISLGGDTDTIATMAGAIAGAYYGMDQVPESWQQSCEGYEETDILAQSLHRVFQKS [Q9NX46]"
  property: "percentage of EdU-negative"
  unit-text: "%"
  readout-value: 7.08
- item-sequence: "MAALSRALGPLRTPAPPLWIGLFLVATGSQQSLAQPLPGNTTEATPRSLRASGSLCGPHAKAPYLCEATHEPAAARIRAQVPDTRWSRVGGQRFYSRVLSPLHRGPSGHTEASAQRSHMGKLKEPQPQDHKPGLGAS [Q6UXU0]"
  property: "percentage of EdU-negative"
  unit-text: "%"
  readout-value: 5.92
- item-sequence: "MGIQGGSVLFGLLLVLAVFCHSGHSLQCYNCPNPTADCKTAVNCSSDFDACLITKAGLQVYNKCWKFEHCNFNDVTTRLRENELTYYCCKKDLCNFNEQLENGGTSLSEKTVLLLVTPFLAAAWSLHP"
  property: "percentage of EdU-negative"
  unit-text: "%"
  readout-value: 5.24
- item-sequence: "MLLAWVQAFLVSNMLLAEAYGSGGCFWDNGHLYREDQTSPAPGLRCLNWLDAQSGLASAPVSGAGNHSYCRNPDEDPRGPWCYVSGEAGVPEKRPCEDLRCPETTSQALPAFTTEIQEASEGPGADEVQVFAPANALPARSEAAAVQPVIGISQRVRMNSKEKKDLGTLGYVLGITMMVIIIAIGAGIILGYSYKRGKDLKEQHDQKVCEREMQRITLPLSAFTNPTCEIVDEKTVVVHTSQTPVDPQEGTTPLMGQAGTPGA [Q96FE7]"
  property: "percentage of EdU-negative"
  unit-text: "%"
  readout-value: 5.22
- item-sequence: "MPVPASWPHLPSPFLLMTLLLGRLTGVAGEDELQVIQPEKSVSVAAGESATLRCAMTSLIPVGPIMWFRGAGAGRELIYNQKEGHFPRVTTVSELTKRNNLDFSISISNITPADAGTYYCVKFRKGSPDDVEFKSGAGTELSVRAKPSAPVVSGPAVRATPEHTVSFTCESHGFSPRDITLKWFKNGNELSDFQTNVDPAGDSVSYSIHSTARVVLTRGDVHSQVICEIAHITLQGDPLRGTANLSEAIRVPPTLEVTQQPMRAENQANVTCQVSNFYPRGLQLTWLENGNVSRTETASTLIENKDGTYNWMSWLLVNTCAHRDDVVLTCQVEHDGQQAVSKSYALEISAHQKEHGSDITHEAALAPTAPLLVALLLGPKLLLVVGVSAIYICWKQKA"
  property: "percentage of EdU-negative"
  unit-text: "%"
  readout-value: 5.42
- item-sequence: "MAGPPRLLLLPLLLALARGLPGALAAQEVQQSPHCTTVPVGASVNITCSTSGGLRGIYLRQLGPQPQDIIYYEDGVVPTTDRRFRGRIDFSGSQDNLTITMHRLQLSDTGTYTCQAITEVNVYGSGTLVLVTEEQSQGWHRCSDAPPRASALPAPPTGSALPDPQTASALPDPPAASALPAALAVISFLLGLGLGVACVLARTQIKKLCSWRDKNSAACVVYEDMSHSRCNTLSSPNQYQ"
  property: "percentage of EdU-negative"
  unit-text: "%"
  readout-value: 4.88
- item-sequence: "MNLAISIALLLTVLQVSRGQKVTSLTACLVDQSLRLDCRHENTSSSPIQYEFSLTRETKKHVLFGTVGVPEHTYRSRTNFTSKYNMKVLYLSAFTSKDEGTYTCALHHSGHSPPISSQNVTVLRDKLVKCEGISLLAQNTSWLLLLLLSLSLLQATDFMSL"
  property: "percentage of EdU-negative"
  unit-text: "%"
  readout-value: 6.24

Would you mind telling me what percentage of EdU-negative value was observed for MRPLLVLLLLGLAAGSPPLDDNKIPSLCPGHPGLPGTPGHHGSQGLPGRDGRDGRDGAPGAPGEKGEGGRPGLPGPRGDPGPRGEAGPAGPTGPAGECSVPPRSAFSAKRSESRVPPPSDAPLPFDRVLVNEQGHYDAVTGKFTCQVPGVYYFAVHATVYRASLQFDLVKNGESIASFFQFFGGWPKPASLSGGAMVRLEPEDQVWVQVGVGDYIGIYASIKTDSTFSGFLVYSDWHSSPVFA [Q9BXJ0] ? 6.26

What do you have for MGPLINRCKKILLPTTVPPATMRIWLLGGLLPFLLLLSGLQRPTEGSEVAIKIDFDFAPGSFDDQYQGCSKQVMEKLTQGDYFTKDIEAQKNYFRMWQKAHLAWLNQGKVLPQNMTTTHAVAILFYTLNSNVHSDFTRAMASVARTPQQYERSFHFKYLHYYLTSAIQLLRKDSIMENGTLCYEVHYRTKDVHFNAYTGATIRFGQFLSTSLLKEEAQEFGNQTLFTIFTCLGAPVQYFSLKKEVLIPPYELFKVINMSYHPRGDWLQLRSTGNLSTYNCQLLKASSKKCIPDPIAIASLSFLTSVIIFSKSRV ? 6.69

Measured values drawn from the supplement of paper PMC11316812 for this set.
